Tested on: Plasmodium berghei
METHOD_SUMMARY: Screen against P. berghei liver stage (PbLuc), transformed with Luciferase, at 10uM
Format: functional, HepG2
SETUP_CONDITIONS: tested at 10 uM
Among all 69,000 compounds or so, about 8,600 (12%) showed an effect of 50% or more. This excerpt belongs to a sample that is enriched for strong results.
MEASURED_METRIC: INHIBITION (%)
Quick note: give the figure in %, leave out the unit.

{"COMPOUND": "CNCCCNc1nc(C2CCCC2)nc2c1cnn2C", "UNIT_ABBREVIATION": "%", "INHIBITION": 37.1}
{"COMPOUND": "CC1(C(=O)N2CCN(C3CCCC3)CC2)CNCCO1 (stereo not drawn)", "UNIT_ABBREVIATION": "%", "INHIBITION": -21.4}
{"COMPOUND": "CC(=O)N1CC[C@H]2OCC[C@@H](C(=O)NCc3ccco3)[C@H]2C1", "UNIT_ABBREVIATION": "%", "INHIBITION": 35.7}
{"COMPOUND": "CNS(=O)(=O)c1ccc(C(=O)N2CCCC2c2ccncc2)o1 (stereo not drawn)", "UNIT_ABBREVIATION": "%", "INHIBITION": 36.1}

Req: Tell me its INHIBITION given `CCOCCn1nc(C2CCNCC2)n(Cc2ccccc2)c1=O` as the entry.
Resp: 8.51

Req: Hello, please tell me recorded INHIBITION for this one: `CCc1cnc(CNC(=O)NCCCO)s1`
Resp: -25.6

----------
Tested on: Plasmodium berghei
METHOD_SUMMARY: Screen against P. berghei liver stage (PbLuc), transformed with Luciferase, at 10uM
Assay type: functional, HepG2
SETUP_CONDITIONS: tested at 10 uM
In all, about 69,000 compounds went through this assay and about 8,600 (12%) showed an effect of 50% or more. The entries come from a sample that favours strong results as a whole.
# cutoff -10% applies to INHIBITION; >= gives MET, < gives NOT MET

// known answers, use as guide
{"MOLECULE": "CC(C)CC(=O)N1CCN(Cc2cc(-c3ccncc3)nn2C)CC1", "CATEGORY_LABEL": "NOT MET"}
{"MOLECULE": "O=C(c1cnccn1)N1C[C@H]2CC[C@@H](C1)N(C(=O)Cc1ccsc1)C2", "CATEGORY_LABEL": "MET"}
{"MOLECULE": "COCC(=O)Nc1nnc2n(Cc3cccc(OC)c3)[nH]c(C)c1-2", "CATEGORY_LABEL": "NOT MET"}

Req: Form field: INHIBITION at least -10%? Entry: `COc1cc(C)nc(N2CCN(C(=O)c3ccoc3C)CC2)n1`
Resp: MET

Req: I'd appreciate it if you could say whether COc1ccc(CNCC2CCN(c3ccccc3OC)C2)cc1O (stereo unspecified) has INHIBITION at least equal to -10%.
Resp: NOT MET

Req: Decide: is the reported value of INHIBITION for `O=S(=O)(N1CCOCC1)N1CCC(Oc2cnccn2)CC1` equal to or greater than -10%?
Resp: MET

----------
Readings of INHIBITION for the listed compounds
Test system: Plasmodium berghei
METHOD_SUMMARY: Screen against P. berghei liver stage (PbLuc), transformed with Luciferase, at 10uM
Type: functional, HepG2
SETUP_CONDITIONS: tested at 10 uM
Out of some 69,000 compounds screened, about 8,600 (12%) showed an effect of 50% or more. For the sample, strong results were picked, then their nearest neighbours and some compounds at random.
Your answer is read as %, so omit the unit and give the number.

Some compounds with recorded INHIBITION:
{"COMPOUND": "CCCN1CCCCCC1Cc1c(C(=O)NC)sc2ccccc12 (stereo unspecified)", "INHIBITION, %": 17.235}
{"COMPOUND": "COCCN1CC[C@@H]2OC[C@H](C(=O)NCc3cccs3)C[C@@H]2C1", "INHIBITION, %": 41.5}
{"COMPOUND": "COc1ccc(CC(=O)N2Cc3nccn3CC(CN(C)C)C2)cc1 (stereo unspecified)", "INHIBITION, %": 6.72}

Req: For the compound `CCCn1c(N2CCCCC2)nc2c(C)nn(C)c2c1=O` , give its reported INHIBITION.
Resp: 35.9

Req: Write down INHIBITION measured for item CNC(=O)Cn1ccc2ccc(NC(=O)NC(C)C(C)C)cc21 (stereo unspecified)
Resp: 15.5

Req: Tell me INHIBITION reported for `CCO[C@@H]1C[C@H]2CN(Cc3ccc(C)o3)CCN2C1`
Resp: -37.9

----------
Tested on: Plasmodium berghei
METHOD_SUMMARY: Screen against P. berghei liver stage (PbLuc), transformed with Luciferase, at 10uM
Type: functional, HepG2
SETUP_CONDITIONS: tested at 10 uM
In all, about 69,000 compounds went through this assay and about 8,600 (12%) showed an effect of 50% or more. The list comes from a sample in which strong results are over-represented; it also holds close analogues and randomly drawn compounds.
Where INHIBITION equals or exceeds 20%, the correct label is yes; where it does not, the label is no.

Solved cases below.
{"COMPOUND": "COc1cc(C2c3c(n[nH]c3C)N=C3COC(=O)C32)cc2c1OCO2 (stereo not drawn)", "CATEGORY_LABEL": "yes"}
{"COMPOUND": "COCC1c2nnn(C)c2CCN1C(=O)COc1ccccc1OC (stereo not drawn)", "CATEGORY_LABEL": "yes"}
{"COMPOUND": "Cc1nc(C(=O)N2CCCC2c2c(C)nn(C)c2C)cs1 (stereo not drawn)", "CATEGORY_LABEL": "no"}

Could you now look at the following compound, please?
Req: Exam item: decide whether the reported INHIBITION for `Cc1ccc(N2C[C@@H]3CN(C(=O)c4ccccc4)CCO[C@@H]3C2)nn1` is at least 20%.
Resp: yes

----------
Tested on: Plasmodium berghei
METHOD_SUMMARY: Screen against P. berghei liver stage (PbLuc), transformed with Luciferase, at 10uM
Assay type: functional, HepG2
SETUP_CONDITIONS: tested at 10 uM
About 8,600 (12%) of roughly 69,000 compounds showed an effect of 50% or more. For the sample, strong results were picked, then their nearest neighbours and some compounds at random.
This section presents compounds with their documented INHIBITION values.
Hi, when you answer, please include the unit after the number. Thanks!

Consider the reported INHIBITION for these compounds:
{"COMPOUND": "CCSc1cc(C(=O)NCCNC(=O)N(C)C)ccn1", "MEAS_VALUE": "-22.8%"}
{"COMPOUND": "Cc1nc(N(C)C)nc(C)c1NS(=O)(=O)c1ccc(F)cc1F", "MEAS_VALUE": "-7.81%"}
{"COMPOUND": "O=C(N[C@@H]1CN(c2ncccn2)C[C@@H]2CCCO[C@@H]21)c1ccnnc1", "MEAS_VALUE": "-3.52%"}
{"COMPOUND": "CCCS(=O)(=O)NC1CCN(c2cccc(F)c2C#N)CC1", "MEAS_VALUE": "25.4%"}
{"COMPOUND": "Cc1cc(C)n(CC2CN(Cc3noc(C)n3)CCO2)n1 (stereo unspecified)", "MEAS_VALUE": "5.7%"}
{"COMPOUND": "CCCc1nc(CN2CCCC2c2cnn(C)c2)cs1 (stereo unspecified)", "MEAS_VALUE": "-32%"}

Req: Look up and report measured INHIBITION (Plasmodium berghei) for the following compound: `Cc1nn(C)c2nc(C(C)C)cc(C(=O)Nc3n[nH]c(C4CC4)n3)c12`
Resp: 45.3%

Req: Look up and report INHIBITION, with Plasmodium berghei as system, for Cc1ccc2c(c1)OCCCC2NCc1nnc2n1CCCCC2 (stereo unspecified)
Resp: -14.2%

Req: Please report the measured INHIBITION for O=C(CN1CCCCC1)N1CCC(c2cc(=O)n3c(n2)CCCCC3)C1 (stereo unspecified) tested on Plasmodium berghei.
Resp: -15.3%

Req: // fetch INHIBITION; item: `O=C(Nc1ccccc1)c1ccc2c(c1)C1(CCCCC1)CN2` ; system: Plasmodium berghei
Resp: 90.1%

Req: Print Plasmodium berghei INHIBITION for `CNC(=O)N1CCC2(CC1)CNc1ccc(F)cc12` .
Resp: 10.5%

----------
Listed here are compounds together with their documented INHIBITION.
System: Plasmodium berghei
METHOD_SUMMARY: Screen against P. berghei liver stage (PbLuc), transformed with Luciferase, at 10uM
Format: functional, HepG2
SETUP_CONDITIONS: tested at 10 uM
Out of some 69,000 compounds screened, about 8,600 (12%) showed an effect of 50% or more. The full list was thinned out, with strong results kept by preference.
Please respond with the number in % and leave the unit unwritten.

Check out these entries, answers already filled in.
{"COMPOUND": "CN(C1CCCN(c2ccccn2)C1)S(C)(=O)=O (stereo unspecified)", "MEASURED_METRIC": "INHIBITION", "MEAS_VALUE": -2.25}
{"COMPOUND": "COCCN(C)C[C@@H]1CN(C(=O)c2ccc(O)c(Cl)c2)C[C@@H]1CO", "MEASURED_METRIC": "INHIBITION", "MEAS_VALUE": 46.1}
{"COMPOUND": "CS(=O)(=O)N1CC[C@H]2C[C@@H](C(=O)N3CCOCC3)O[C@@H]2C1", "MEASURED_METRIC": "INHIBITION", "MEAS_VALUE": 25.4}

Req: Find the measured INHIBITION of c1cncc(CNc2cncc(C3CCCN3)n2)c1 (stereo unspecified) and report it.
Resp: 6.26

Req: Supply recorded INHIBITION for `Cn1nc(C(=O)NCc2ccccc2C(F)(F)F)c2c1CCS(=O)(=O)C2` here.
Resp: 45.8

Req: Please report INHIBITION for the following compound: `CS(=O)(=O)N1CCn2c(C(=O)N3CCOCC3)cnc2C1`
Resp: 52.6
